Values were extracted from patent EP3932409A1.

# System: 229E-GFP
# METHOD NOTES: microbe, parasite or virus in culture
# Format: cell-based, human coronavirus
# RUN CONDITIONS: result in words; micromolar concentrations

STRUCTURE AS SMILES	infection by 229E-GFP
CC[C@H]1OC(=O)[C@H](C)[C@@H](O[C@H]2C[C@@](C)(OC)[C@@H](O)[C@H](C)O2)[C@H](C)[C@@H](O[C@@H]2O[C@H](C)C[C@H](N(C)C)[C@H]2O)[C@](C)(O)C[C@@H](C)/C(=N\OC)[C@H](C)[C@@H](O)[C@]1(C)O	blocked viral infection
CC[C@H]1OC(=O)[C@H](C)[C@@H](O[C@H]2C[C@@](C)(OC)[C@@H](O)[C@H](C)O2)[C@H](C)[C@@H](O[C@@H]2O[C@H](C)C[C@H](N(C)C)[C@H]2O)[C@](C)(O)C[C@@H](C)CN(C)[C@H](C)[C@@H](O)[C@]1(C)O	blocked viral infection
CC[C@H]1OC(=O)[C@H](C)[C@@H](O[C@H]2C[C@@](C)(OC)[C@@H](O)[C@H](C)O2)[C@H](C)[C@@H](O[C@@H]2O[C@H](C)C[C@H](N(C)C)[C@H]2O)[C@](C)(OC)C[C@@H](C)C(=O)[C@H](C)[C@@H](O)[C@]1(C)O	blocked viral infection
